Source of measurements: ChEMBL document CHEMBL3091452

target: Carbonic anhydrase 9 (Homo sapiens)
Parameter: Ki (nM)
State the answer as a number, implicitly in nM.

Completed entries (count: 6):
CCC(=O)OC[C@H]1O[C@@H](n2cc(-c3cccc(S(N)(=O)=O)c3)nn2)[C@H](OC(=O)CC)[C@@H](OC(=O)CC)[C@@H]1OC(=O)CC; 874
CCCC(=O)OC[C@H]1O[C@@H](n2cc(-c3ccc(S(N)(=O)=O)cc3)nn2)[C@H](OC(=O)CCC)[C@@H](OC(=O)CCC)[C@@H]1OC(=O)CCC; 633
CC(C)CC(=O)OC[C@H]1O[C@@H](n2cc(-c3cccc(S(N)(=O)=O)c3)nn2)[C@H](OC(=O)CC(C)C)[C@@H](OC(=O)CC(C)C)[C@@H]1OC(=O)CC(C)C; 724
CC(C)CC(=O)OC[C@H]1O[C@@H](n2cc(-c3cccc(S(N)(=O)=O)c3)nn2)[C@H](OC(=O)CC(C)C)[C@@H](OC(=O)CC(C)C)[C@H]1OC(=O)CC(C)C; 254
CCC(=O)OC[C@H]1O[C@@H](n2cc(-c3cccc(S(N)(=O)=O)c3)nn2)[C@H](OC(=O)CC)[C@@H](OC(=O)CC)[C@H]1OC(=O)CC; 126
C#Cc1cccc(S(N)(=O)=O)c1; 65.7

Then there is this compound:
[in] Sample NS(=O)(=O)c1cccc(-c2cn([C@@H]3O[C@H](CO)[C@H](O)[C@H](O)[C@H]3O)nn2)c1 — what was its Ki?
[out] 590
